Test system: Plasmodium falciparum
Assay: Antimalarial activity against chloroquine-resistant Plasmodium falciparum J164
Assay type: functional, organism-based
Value Type: pIC50
Value format note: pIC50 is -log10 of concentration (mol/L); just state the number.

{"Smiles": "CC(C)(C)NCc1cc(Nc2ccnc3cc(Cl)ccc23)ccc1F", "pIC50": 7.53}
{"Smiles": "CCN(CC)Cc1cc(Nc2ccnc3cc(Cl)ccc23)ccc1O.Cl", "pIC50": 7.73}

## Input // returns reported pIC50 for input Fc1ccc(Nc2ccnc3cc(Cl)ccc23)cc1CN1CCCC1
## Output 7.46

----------
Molecular target: Cytochrome P450 3A4 (Homo sapiens, UniProt P08684)
Sequence (P08684 whole entry): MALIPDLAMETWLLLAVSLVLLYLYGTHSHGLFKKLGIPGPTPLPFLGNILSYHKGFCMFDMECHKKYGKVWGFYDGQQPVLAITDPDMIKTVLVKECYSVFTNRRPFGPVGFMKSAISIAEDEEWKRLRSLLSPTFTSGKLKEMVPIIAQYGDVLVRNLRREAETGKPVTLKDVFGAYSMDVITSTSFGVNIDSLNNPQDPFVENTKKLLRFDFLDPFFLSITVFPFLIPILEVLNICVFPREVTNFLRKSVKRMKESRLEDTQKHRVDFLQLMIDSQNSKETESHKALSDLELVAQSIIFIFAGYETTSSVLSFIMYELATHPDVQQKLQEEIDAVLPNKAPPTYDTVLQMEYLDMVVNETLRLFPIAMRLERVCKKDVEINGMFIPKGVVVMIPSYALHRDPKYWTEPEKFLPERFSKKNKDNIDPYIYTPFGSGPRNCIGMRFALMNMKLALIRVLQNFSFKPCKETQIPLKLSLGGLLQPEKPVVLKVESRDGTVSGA
Assay: Inhibition of human CYP3A4 using PPR substrate
Format: ADME
Conditions: read-out: IC50
We begin with a simple list: items and their reported IC50.

{"Smiles": "CCN(CC)Cc1cc(Nc2ccnc3cc(Cl)ccc23)ccc1O.Cl", "IC50": "> 100 µM"}

# input for lookup
## Input Endpoint output: IC50 of CCNCc1cc(Nc2ccnc3cc(Cl)ccc23)ccc1O . Value?
## Output > 100 µM
